# Test Method Notes: Cytotoxicity by MTT assay, reported with the IL-1 assay (Table I)
# Assay type: cell-based
# Details: mouse, thymocytes, cytotoxic when toxicity greater than 25%

| Compound | MCC |
| --- | --- |
| CC(C)[C@]12O[C@H]1[C@@H]1O[C@]13[C@]1(O[C@H]1C[C@H]1C4=C(CC[C@@]13C)C(=O)OC4)[C@@H]2O [Triptolide, triptolide] | > 12.5 µg/mL |
| CC(C)C12OC1C1OC13C1(C)CCC4=C(COC4=O)C1CC1OC13C2OC(=O)CCC(=O)O (centres unmarked) [YM-262, Triptolide Succinate] | > 12.5 µg/mL |

---

# Test Method Notes: Cytotoxicity by MTT assay, reported with the MLR assay (Table II)
# Format: cell-based
# Details: pbmc and thymocytes, cytotoxic when toxicity greater than 25%

| Molecule | Unit Info | MCC |
| --- | --- | --- |
| CC(C)[C@]12O[C@H]1[C@@H]1O[C@]13[C@]1(O[C@H]1C[C@H]1C4=C(CC[C@@]13C)C(=O)OC4)[C@@H]2O [Triptolide, triptolide] | µg/mL | 0.0133 |

---

# System: murine thymocytes (IL-1β action)
# Test Method Notes: Inhibition of IL-1 action: suppression of IL-1β + PHA stimulated thymocyte proliferation ((3H)-thymidine incorporation)
# Type: cell-based, mouse (C3H/HeN)
# Details: IL-1β 0.08 ng/ml + PHA 10 μg/ml, 72 hours; read-out: IC50, IL-1 assay

| Compound | IC50 |
| --- | --- |
| CC(C)[C@]12O[C@H]1[C@@H]1O[C@]13[C@]1(O[C@H]1C[C@H]1C4=C(CC[C@@]13C)C(=O)OC4)[C@@H]2O [Triptolide, triptolide] | ~5 nM |
